Below, each entry is listed alongside its reported AUC.
# Assay remarks: AUC in Sprague-Dawley rat at 1 mg/kg, po and 0.4 mg/kg, iv
# Assay type: ADME, organism-based
# Recorded conditions: plasma
API: value field is a number in ng·h/mL; no unit string.

Enquiry: Answer with the recorded AUC of CCCC(CCC)n1cc2c3c(nc(C)cc31)N(c1ccc(C(F)(F)F)cc1C(F)(F)F)CC2 only.
Return: 1480

Enquiry: Answer with the recorded AUC of CCCC(CCC)n1cc2c3c(nc(C)cc31)N(c1ccc(OC)c(F)c1)CC2 only.
Return: 131

Enquiry: Answer with the recorded AUC of CCC(CC)n1cc2c3c(nc(C)cc31)N(c1ccc(C(F)(F)F)cc1C(F)(F)F)CC2 only.
Return: 222

* * *

Below, each entry is listed alongside its reported clearance.
# Assay remarks: Plasma clearance in Sprague-Dawley rat at 1 mg/kg, po and 0.4 mg/kg, iv
# Format: ADME, organism-based
API: value field is a number in mL/min/kg; no unit string.

Worked cases, clearance given:
CCCC(CCC)n1cc2c3c(nc(C)cc31)N(c1ccc(OC)c(F)c1)CC2 = 47
CCCC(CCC)n1cc2c3c(nc(C)cc31)N(c1ccc(C#N)cc1C)CC2 = 54

Enquiry: Answer with the recorded clearance of CCCC(CCC)n1cc2c3c(nc(C)cc31)N(c1ccc(C(F)(F)F)cc1C(F)(F)F)CC2 only.
Return: 8

Enquiry: Answer with the recorded clearance of CCC(CC)n1cc2c3c(nc(C)cc31)N(c1ccc(C(F)(F)F)cc1C(F)(F)F)CC2 only.
Return: 21

* * *

Below, each entry is listed alongside its reported bioavailability.
# Assay remarks: Oral bioavailability in Sprague-Dawley rat at 1 mg/kg
# Format: ADME, organism-based
# Recorded conditions: in vivo

Worked cases, bioavailability given:
CCCC(CCC)n1cc2c3c(nc(C)cc31)N(c1ccc(OC)c(F)c1)CC2 = 37%
CCCC(CCC)n1cc2c3c(nc(C)cc31)N(c1ccc(C(F)(F)F)cc1C(F)(F)F)CC2 = 71%
CCC(CC)n1cc2c3c(nc(C)cc31)N(c1ccc(C(F)(F)F)cc1C(F)(F)F)CC2 = 28%

Let us examine a further case.
Enquiry: Answer with the recorded bioavailability of CCCC(CCC)n1cc2c3c(nc(C)cc31)N(c1ccc(C#N)cc1C)CC2 only.
Return: < 5%

* * *

# Target system: Corticotropin-releasing factor receptor 1 (Homo sapiens)
# Sequence (P34998 whole entry): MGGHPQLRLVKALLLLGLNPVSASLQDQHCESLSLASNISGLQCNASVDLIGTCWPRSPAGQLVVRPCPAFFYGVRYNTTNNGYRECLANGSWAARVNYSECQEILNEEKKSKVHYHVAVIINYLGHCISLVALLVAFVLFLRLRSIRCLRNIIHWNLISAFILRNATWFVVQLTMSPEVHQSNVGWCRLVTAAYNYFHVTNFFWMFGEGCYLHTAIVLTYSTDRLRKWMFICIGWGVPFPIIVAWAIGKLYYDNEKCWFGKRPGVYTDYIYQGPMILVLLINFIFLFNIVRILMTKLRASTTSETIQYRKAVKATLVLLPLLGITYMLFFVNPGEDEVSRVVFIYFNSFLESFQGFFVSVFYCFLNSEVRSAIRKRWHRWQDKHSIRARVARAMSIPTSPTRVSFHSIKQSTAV
# Assay remarks: Displacement of [125I]CRF from human recombinant CRF1 receptor expressed in CHO cell membrane
Below, each entry is listed alongside its reported pIC50.
The value called pIC50 is obtained by taking minus log10 of the concentration in mol/L.

CCCC(CCC)n1cc2c3c(nc(C)cc31)N(c1ccc(OC)c(F)c1)CC2 = 7.40
CCC(CC)n1cc2c3c(nc(C)cc31)N(c1ccc(C(F)(F)F)cc1C(F)(F)F)CC2 = 6.90
CCC(CC)n1cc2c3c(nc(C)cc31)N(c1ccc(OC)c(F)c1)CC2 = 7.30
CCCC(CCC)n1cc2c3c(nc(C)nc31)N(c1ccc(C#N)cc1C)CC2 = 7.30
COCC(COC)Nc1nc(C)nc2c(-c3ccc(Cl)cc3Cl)c(C)nn12 = 7.40
CCCC(CCC)n1cc2c3c(nc(C)nc31)N(c1ccc(C(F)(F)F)cc1C(F)(F)F)CC2 = 7.80
CCCC(CCC)n1cc2c3c(nc(C)cc31)N(c1ccc(C#N)cc1C)CC2 = 8.40
CCCCN(CC)c1nc(C)nc2c1c(C)cn2-c1c(C)cc(C)cc1C = 7.80

Enquiry: Answer with the recorded pIC50 of CCC(CC)n1cc2c3c(nc(C)nc31)N(c1ccc(C(F)(F)F)cc1C(F)(F)F)CC2 only.
Return: 7.60

Enquiry: Answer with the recorded pIC50 of CCC(CC)n1cc2c3c(nc(C)cc31)N(c1ccc(OC)cc1)CC2 only.
Return: 7.20

Enquiry: Answer with the recorded pIC50 of CCCC(CCC)n1cc2c3c(nc(C)cc31)N(c1ccc(OC)cc1C)CC2 only.
Return: 6.90
